Molecular target: UniProt O00519
Sequence (O00519 whole entry): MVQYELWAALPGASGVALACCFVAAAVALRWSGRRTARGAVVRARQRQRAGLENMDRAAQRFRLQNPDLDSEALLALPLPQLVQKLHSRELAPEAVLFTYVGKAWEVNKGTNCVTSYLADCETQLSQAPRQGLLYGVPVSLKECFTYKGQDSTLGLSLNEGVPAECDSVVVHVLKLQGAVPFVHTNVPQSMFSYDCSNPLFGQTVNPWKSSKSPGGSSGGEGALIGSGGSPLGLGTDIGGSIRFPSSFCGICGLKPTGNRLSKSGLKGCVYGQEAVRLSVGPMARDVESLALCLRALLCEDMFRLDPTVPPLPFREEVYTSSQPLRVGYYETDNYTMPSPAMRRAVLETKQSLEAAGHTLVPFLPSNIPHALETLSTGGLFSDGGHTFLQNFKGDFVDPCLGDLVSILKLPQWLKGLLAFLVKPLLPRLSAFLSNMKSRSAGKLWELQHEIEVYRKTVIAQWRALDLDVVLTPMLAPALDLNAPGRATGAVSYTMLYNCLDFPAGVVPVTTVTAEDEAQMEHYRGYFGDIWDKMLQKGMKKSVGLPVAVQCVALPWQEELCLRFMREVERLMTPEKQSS
Experiment: Inhibition of human FAAH expressed in human H4 cells
Consider the following compounds; for each one, report its log10 IC50.
Hi team, quick reminder: these entries are log10 of IC50 (nM).

If you can, please state the reported log10 IC50 value of CCCCOc1ccc(CNC(=O)Oc2cccc(C(F)(F)F)c2)cc1 .
1.60

If you can, please state the reported log10 IC50 value of CCCCOc1ccc(C(CC)NC(=O)Oc2ccc(F)cc2F)cc1 (stereo unspecified) .
1.32

If you can, please state the reported log10 IC50 value of CCCCCCCCCCOc1ccc(NC(=O)ON=C(C)C)cc1 .
0.34

If you can, please state the reported log10 IC50 value of CCCCCCOc1ccc(NC(=O)O/N=C/c2ccc(F)cc2)cc1 .
0.81

If you can, please state the reported log10 IC50 value of CCCCCCCCOc1ccc(NC(=O)ON=C(C)C)cc1 .
0.38

If you can, please state the reported log10 IC50 value of CCCCOc1ccc(CNC(=O)Oc2ccc(F)cc2)cc1 .
0.66

----------
Molecular target: Fatty-acid amide hydrolase 1 (Homo sapiens, UniProt O00519)
Sequence (O00519 whole entry): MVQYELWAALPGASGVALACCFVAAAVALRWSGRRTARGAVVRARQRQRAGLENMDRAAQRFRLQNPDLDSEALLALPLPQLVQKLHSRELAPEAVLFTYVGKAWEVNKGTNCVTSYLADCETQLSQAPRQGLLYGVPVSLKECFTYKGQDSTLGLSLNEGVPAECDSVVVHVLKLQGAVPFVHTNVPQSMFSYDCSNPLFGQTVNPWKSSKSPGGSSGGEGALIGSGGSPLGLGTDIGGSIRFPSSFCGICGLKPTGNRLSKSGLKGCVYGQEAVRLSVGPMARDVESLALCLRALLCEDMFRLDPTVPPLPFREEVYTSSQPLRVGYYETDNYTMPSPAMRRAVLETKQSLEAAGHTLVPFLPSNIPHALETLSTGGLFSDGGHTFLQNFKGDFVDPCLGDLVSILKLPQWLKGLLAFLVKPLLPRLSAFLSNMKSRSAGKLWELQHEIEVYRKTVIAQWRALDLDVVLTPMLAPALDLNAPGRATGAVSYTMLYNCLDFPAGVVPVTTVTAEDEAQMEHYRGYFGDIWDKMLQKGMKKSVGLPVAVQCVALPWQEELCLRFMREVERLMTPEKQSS
Test: Inhibition of human FAAH expressed in human H4 cells
Label criterion met when IC50 is strictly below 0.01 µM; otherwise label criterion not met.

IC50 under 0.01 µM? Item: CCCCCCCOc1ccc(NC(=O)ON=C(C)C)cc1
criterion met

IC50 under 0.01 µM? Item: CCCCCCCCCCOc1ccc(NC(=O)Oc2ccccc2)cc1
criterion met

IC50 under 0.01 µM? Item: CCCCOc1ccc(CNC(=O)Oc2cccc(Cl)c2)cc1
criterion not met

IC50 under 0.01 µM? Item: CCCCCCOc1ccc(NC(=O)ON=C(C)C)cc1
criterion not met

IC50 under 0.01 µM? Item: CCCCCCOc1ccc(NC(=O)Oc2ccccc2F)cc1
criterion not met

IC50 under 0.01 µM? Item: CCCCCOc1ccc(NC(=O)ON=C(C)C)cc1
criterion not met

IC50 under 0.01 µM? Item: CCCCOc1ccc(NC(=O)ON=C(C)C)cc1
criterion not met
